From: paper PMC10786891

- assay_system: T1, EsCas13d, nuclease-dead (Eubacterium siraeum, UniProt B0MS50, R295A;H300A;R849A;H854A)
- T1 sequence: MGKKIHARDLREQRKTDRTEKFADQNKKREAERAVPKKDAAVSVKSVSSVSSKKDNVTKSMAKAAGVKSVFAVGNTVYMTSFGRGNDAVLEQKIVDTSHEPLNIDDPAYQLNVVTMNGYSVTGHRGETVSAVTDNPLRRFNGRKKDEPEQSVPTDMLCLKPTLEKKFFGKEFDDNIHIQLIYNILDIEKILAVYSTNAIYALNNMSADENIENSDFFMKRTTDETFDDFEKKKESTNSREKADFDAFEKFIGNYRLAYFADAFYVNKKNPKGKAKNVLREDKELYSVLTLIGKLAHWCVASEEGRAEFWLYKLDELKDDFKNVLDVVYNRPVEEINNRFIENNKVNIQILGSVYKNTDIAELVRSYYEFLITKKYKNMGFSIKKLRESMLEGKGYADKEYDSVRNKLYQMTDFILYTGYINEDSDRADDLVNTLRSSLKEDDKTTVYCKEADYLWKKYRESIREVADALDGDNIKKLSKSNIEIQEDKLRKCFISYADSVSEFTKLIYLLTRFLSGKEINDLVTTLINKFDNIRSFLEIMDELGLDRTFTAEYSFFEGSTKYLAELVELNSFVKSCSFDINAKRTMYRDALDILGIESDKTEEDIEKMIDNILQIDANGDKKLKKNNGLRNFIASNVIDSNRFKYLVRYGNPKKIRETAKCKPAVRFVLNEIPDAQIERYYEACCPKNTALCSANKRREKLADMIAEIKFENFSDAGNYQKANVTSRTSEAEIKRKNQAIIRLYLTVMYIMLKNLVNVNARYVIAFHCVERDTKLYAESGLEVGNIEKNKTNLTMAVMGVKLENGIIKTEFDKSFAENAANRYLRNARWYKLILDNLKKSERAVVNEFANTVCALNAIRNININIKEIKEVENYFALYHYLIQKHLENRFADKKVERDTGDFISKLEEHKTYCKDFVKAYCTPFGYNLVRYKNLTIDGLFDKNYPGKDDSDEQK
- procedure_text: crRNA (strand 1, pre-loaded); Mg2+; 40 mM Tris-HCl pH 7.5, 150 mM NaCl, 6 mM MgCl2, 1 mM DTT, 0.1% Tween-20, 0.2 mg/ml BSA; 25 C; 10 min per concentration, then washed
- test_context: tags: His6-TwinStrep-SUMO cleaved; N-terminal SNAP kept (SNAP-Surface 488); label: 3' end held by stalled T7 RNA polymerase
Exercise: for every item that follows, state its recorded pKd.
# pKd is unitless: minus log10 of the molar concentration; print number only

Inquiry: Supply recorded pKd for target 1 MT 5'PFS GUU 3'PFS UCU (mixed) RNA 1: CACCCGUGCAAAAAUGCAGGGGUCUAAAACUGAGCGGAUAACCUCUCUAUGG RNA 2: GGGAAUGGAUCCACAUCUACGAAUUCGUUCCAUAGAGAGGUUAUCCGCUCAUCUAGAUCGGAAGAGCACACGU here.
Reply text: 7.90

Inquiry: Give me measured pKd, please, for this binder: target 2 MT 5'PFS UUC 3'PFS AAC (mixed) RNA 1: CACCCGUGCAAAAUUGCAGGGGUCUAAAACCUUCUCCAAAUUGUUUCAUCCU RNA 2: GGGAAUGGAUCCACAUCUACGAAUUCUUCAGGAUGAAACAAUUUGGAGAAGAACAGAUCGGAAGAGCACACGU
Reply text: 7.82

Inquiry: Dear colleague, please send me the reported pKd for target 2 MT 5'PFS GAA 3'PFS AUG (mixed) RNA 1: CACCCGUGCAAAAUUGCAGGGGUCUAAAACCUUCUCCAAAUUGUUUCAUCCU RNA 2: GGGAAUGGAUCCACAUCUACGAAUUCGAAAGGAUGAAACAAUUUGGAGAAGAUGAGAUCGGAAGAGCACACGU when you can.
Reply text: 8.08

Inquiry: Read off the recorded pKd for target 1 MT 5'PFS AAC 3'PFS AGG (mixed) RNA 1: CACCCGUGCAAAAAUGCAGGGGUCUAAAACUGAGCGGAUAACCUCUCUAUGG RNA 2: GGGAAUGGAUCCACAUCUACGAAUUCAACCCAUAGAGAGGUUAUCCGCUCAAGGAGAUCGGAAGAGCACACGU
Reply text: 7.23

Inquiry: Determine from records and report pKd for target 1 MT 5'PFS AAG 3'PFS CGG (mixed) RNA 1: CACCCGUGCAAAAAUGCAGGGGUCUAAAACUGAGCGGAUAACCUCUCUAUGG RNA 2: GGGAAUGGAUCCACAUCUACGAAUUCAAGCCAUAGAGAGGUUAUCCGCUCACGGAGAUCGGAAGAGCACACGU
Reply text: 7.39

Inquiry: Return the recorded pKd value; entry: target 1 U8A,A14G (mixed) RNA 1: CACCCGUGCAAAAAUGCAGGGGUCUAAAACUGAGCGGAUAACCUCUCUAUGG RNA 2: GGGAAUGGAUCCACAUCUACGAAUUCGUACCAUAGAGGGGUUAACCGCUCACCGAGAUCGGAAGAGCACACGU
Reply text: 7.51

Inquiry: Query pKd for target 3 G4A,U22A (mixed) RNA 1: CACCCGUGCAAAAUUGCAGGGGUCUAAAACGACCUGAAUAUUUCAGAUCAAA RNA 2: GGGAAUGGAUCCACAUCUACGAAUUCGUUAUUGAUCUGAAAUAUUCAAGUCUGCAGAUCGGAAGAGCACACGU
Reply text: 8.24

Inquiry: For target 1 C2U,C6U (mixed) RNA 1: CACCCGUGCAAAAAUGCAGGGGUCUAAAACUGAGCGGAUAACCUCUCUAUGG RNA 2: GGGAAUGGAUCCACAUCUACGAAUUCGUACCAUAGAGAGGUUAUCUGCUUACCGAGAUCGGAAGAGCACACGU , write its pKd.
Reply text: 8.08
